assayTarget: T1, cynomolgus monkey IL-21R expressed on cells (cynomolgus monkey, UniProt G7Q0S8 41-559)
T1 construct: whole, on cells
measurementNotes: cell ELISA, CHO cells
Experimental: A subset of binding proteins was tested for binding to rat, cynomolgus monkey, human IL-21R, or human IL-2R-γ common subunit expressed transiently on the surfaces of CHO-PA-Dukx cells. Cells were transfected 48 hr prior to the assay. […] Cells were incubated with 100 μl TMB until the color reaction reached saturation, stopped with 100 μl of 0.18 M H₂SO₄, and read at A450 on a Perkin Elmer ENVISION™ plate reader.
Examples of binders with documented A450 (13 nM Ab) follow.
quantityMeasured: A450 (13 nM Ab) (A450)

1) AbM (antibody, IgG1, V domains shown, As for AbA: IgG1/lambda, CDR3 graft, residue limits derived; also called VH6/VL13) VH: QVQLQESGPGLVKPSETLSLTCAVSGYSISSGYYWGWIRQPPGKGLEWIGSISHTGNTYYNPPLKSRVTISVDTSKNQFSLKLSSVTAADTAVYYCARFFGFGRPEYWGQGTLVTVSS VL: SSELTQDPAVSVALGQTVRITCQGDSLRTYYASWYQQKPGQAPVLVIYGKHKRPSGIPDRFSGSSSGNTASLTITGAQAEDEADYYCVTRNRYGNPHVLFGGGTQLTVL = 1.45
2) AbR (antibody, human IgG1, V domains shown, CDR3 graft, residue limits derived as for m29; also called VH3/VL18; VH3DM/VL18) VH: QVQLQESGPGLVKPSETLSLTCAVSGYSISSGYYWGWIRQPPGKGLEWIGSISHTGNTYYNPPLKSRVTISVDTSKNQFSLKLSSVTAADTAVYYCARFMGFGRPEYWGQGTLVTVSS VL: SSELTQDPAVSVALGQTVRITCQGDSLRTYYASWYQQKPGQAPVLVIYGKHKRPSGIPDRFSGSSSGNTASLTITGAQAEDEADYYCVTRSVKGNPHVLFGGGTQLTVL = 1.35
3) AbI (antibody, IgG1, V domains shown, As for AbA: IgG1/lambda, CDR3 graft, residue limits derived; also called VHP/VL24) VH: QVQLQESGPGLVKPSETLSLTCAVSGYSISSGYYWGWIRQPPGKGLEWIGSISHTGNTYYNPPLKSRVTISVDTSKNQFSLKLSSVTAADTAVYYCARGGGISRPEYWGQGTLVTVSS VL: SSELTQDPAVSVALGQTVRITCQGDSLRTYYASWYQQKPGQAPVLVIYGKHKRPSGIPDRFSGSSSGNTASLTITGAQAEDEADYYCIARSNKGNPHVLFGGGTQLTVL = 1.21
4) AbD (antibody, IgG1, V domains shown, As for AbA: IgG1/lambda, CDR3 graft, residue limits derived; also called VHP/VL13) VH: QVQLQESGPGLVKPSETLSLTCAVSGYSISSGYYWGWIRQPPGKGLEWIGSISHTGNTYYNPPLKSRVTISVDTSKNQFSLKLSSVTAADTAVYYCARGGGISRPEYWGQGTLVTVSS VL: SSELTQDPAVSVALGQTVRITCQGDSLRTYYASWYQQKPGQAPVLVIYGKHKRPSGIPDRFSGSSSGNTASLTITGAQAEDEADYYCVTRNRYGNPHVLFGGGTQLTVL = 1.38
5) AbP (antibody, human IgG1, V domains shown, CDR3 graft, residue limits derived as for m29; also called VHP/VL20; VHPTM/VL20) VH: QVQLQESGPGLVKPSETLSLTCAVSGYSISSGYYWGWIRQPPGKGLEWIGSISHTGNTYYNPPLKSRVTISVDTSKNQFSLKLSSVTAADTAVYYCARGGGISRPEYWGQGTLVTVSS VL: SSELTQDPAVSVALGQTVRITCQGDSLRTYYASWYQQKPGQAPVLVIYGKHKRPSGIPDRFSGSSSGNTASLTITGAQAEDEADYYCVSRSAKGNPHVLFGGGTQLTVL = 1.31
